Cited source: patent US9493419B2

# Test system: Esophageal squamous cell carcinoma cell line HKESC-1
# EXPERIMENT NOTES: MTS activity assay, HKESC-1
# Format: cell-based
# CONDITION: 50 μg/mL, 48 hours, relative to control
RECORDED ENDPOINT: Relative MTS Activity at 50 μg/mL Concentration, HKESC-1
Enter the number alone.

Value of measured Relative MTS Activity at 50 μg/mL Concentration, HKESC-1 for the entry CC1CCc2cccc(OCc3cccc([N+](=O)[O-])c3)c2N1 (centres unmarked) : 0.453

Value of measured Relative MTS Activity at 50 μg/mL Concentration, HKESC-1 for the entry CC1CCc2cccc(OCc3ccc(C#N)cc3)c2N1 (centres unmarked) [Compound 13b] : 0.754

Value of measured Relative MTS Activity at 50 μg/mL Concentration, HKESC-1 for the entry CC1CCc2cccc(OCc3ccc([N+](=O)[O-])cc3)c2N1 (centres unmarked) [Compound 10b] : 1.337

Value of measured Relative MTS Activity at 50 μg/mL Concentration, HKESC-1 for the entry [NH2][Pt]([NH2])([Cl])[Cl] [CDDP, Cisplatin, reference compound] : 0.135

Value of measured Relative MTS Activity at 50 μg/mL Concentration, HKESC-1 for the entry COc1ccc(COc2cccc3c2NC(C)CC3)cc1 (centres unmarked) [Compound 11b] : 0.917
